Where do the numbers come from? From ChEMBL document CHEMBL1133720.

molecular target: Receptor tyrosine-protein kinase erbB-2; test: Inhibition of c-erbB2 receptor
Measured Property: pIC50
Schema: pIC50 number; meaning minus log10 of the concentration expressed in molar units.

Which measured pIC50 value corresponds to COc1cc(/C=C(\C#N)C(N)=O)cc(Sc2nc3ccccc3s2)c1O ?
6.46

* * *

test system: SK-BR-3; assay: Inhibition of SBBr3 human breast tumor cell proliferation; assay type: functional, cell-based
Measured Property: pIC50
Schema: pIC50 number; meaning minus log10 of the concentration expressed in molar units.

Consider the following illustrative entries.
COc1cc(/C=C(\C#N)c2ccccn2)ccc1O 6.30
N#C/C(=C\c1ccc(Oc2ccccc2)c(I)c1)c1ccccn1 5.19

Please find the next molecule below.
Which measured pIC50 value corresponds to N#C/C(=C\c1ccc(O)cc1)c1ccccn1 ?
5.11
